Source listed as paper PMC11012124.

- System: UACC-62
- PROTOCOL: cells
- CONDITION_CONTEXT: Homo sapiens, UACC-62, 48 h, read-out: LC50
Labelling field: enter Y if recorded CC50 is less than 50 µM. Enter N if it equals or exceeds that cut-off.

These solved cases illustrate the format of a correct answer.
{"MOLECULE": "COc1cc(/C=C/C(=O)c2ccc(S(=O)(=O)NCCNc3nc(N(C)C)nc(N4CCOCC4)n3)cc2)cc(OC)c1OC [23d]", "ASSIGNED_LABEL": "Y"}
{"MOLECULE": "CN(C)c1nc(NCCNS(=O)(=O)c2ccc(C3=Nc4c(N)nc(N)nc4NC(c4ccc(C(F)(F)F)cc4)C3)cc2)nc(N2CCOCC2)n1 (stereo not drawn) [30g]", "ASSIGNED_LABEL": "N"}
{"MOLECULE": "Nc1nc(N)c2c(n1)NC(c1ccccc1)CC(c1ccc(Nc3nc(NCCO)nc(Nc4ccc(Cl)cc4)n3)cc1)=N2 (stereo not drawn) [33a]", "ASSIGNED_LABEL": "Y"}
{"MOLECULE": "CN(C)c1nc(NCCNS(=O)(=O)c2ccc(C(=O)/C=C/c3ccccc3)cc2)nc(N2CCOCC2)n1 [23a]", "ASSIGNED_LABEL": "N"}
{"MOLECULE": "CN(C)c1nc(NCCNS(=O)(=O)c2ccc(C(=O)/C=C/c3ccc(C(F)(F)F)cc3)cc2)nc(Nc2ccc(F)cc2)n1 [24g]", "ASSIGNED_LABEL": "Y"}

### Prompt Take the molecule CN(C)c1nc(NCCNS(=O)(=O)c2ccc(C3=Nc4c(N)nc(N)nc4NC(c4ccccc4)C3)cc2)nc(Nc2ccc(F)cc2)n1 (stereo not drawn) [31a] and say whether its CC50 is less than 50 µM.
### Response N

### Prompt Take the molecule COc1cc(/C=C/C(=O)c2cc(OC)c(OC)c(OC)c2)ccc1Oc1nc(Nc2ccc(F)cc2)nc(N(C)C)n1 [21d] and say whether its CC50 is less than 50 µM.
### Response Y

### Prompt Take the molecule Cc1ccc(/C=C/C(=O)c2ccc(S(=O)(=O)NCCNc3nc(Nc4ccc(F)cc4)nc(N(C)C)n3)cc2)cc1 [24b] and say whether its CC50 is less than 50 µM.
### Response Y

### Prompt Take the molecule COc1cc(/C=C/C(=O)c2ccccc2)ccc1Oc1nc(Nc2ccc(F)cc2)nc(N(C)C)n1 [21a] and say whether its CC50 is less than 50 µM.
### Response N

### Prompt Take the molecule CN(C)c1nc(NCCNS(=O)(=O)c2ccc(C(=O)/C=C/c3ccccc3)cc2)nc(Nc2ccc(F)cc2)n1 [24a] and say whether its CC50 is less than 50 µM.
### Response Y

### Prompt Take the molecule Nc1nc(N)c2c(n1)NC(c1ccc(Cl)cc1)CC(c1ccc(Nc3nc(NCCO)nc(Nc4ccc(Cl)cc4)n3)cc1)=N2 (stereo not drawn) [33e] and say whether its CC50 is less than 50 µM.
### Response Y

----------
GI50 listing for selected molecules.
- System: OVCAR-3
- PROTOCOL: cells
- CONDITION_CONTEXT: Homo sapiens, OVCAR-3, 48 h

Guide cases for GI50, answers given:
{"MOLECULE": "COc1cc(C2CC(c3ccc(Cl)cc3)=Nc3c(N)nc(N)nc3N2)ccc1Oc1nc(Nc2ccc(F)cc2)nc(N(C)C)n1 (stereo not shown) [29e]", "GI50": "> 100 µM"}
{"MOLECULE": "Nc1nc(N)c2c(n1)NC(c1ccc(F)cc1)CC(c1ccc(Nc3nc(NCCO)nc(Nc4ccc(Cl)cc4)n3)cc1)=N2 (stereo not shown) [33f]", "GI50": "1.58 µM"}
{"MOLECULE": "CN(C)c1nc(NCCNS(=O)(=O)c2ccc(C(=O)/C=C/c3ccccc3)cc2)nc(N2CCOCC2)n1 [23a]", "GI50": "15.3 µM"}

The record that follows has no GI50 shown yet.
### Prompt Find the recorded GI50 belonging to Cc1ccc(/C=C/C(=O)c2ccc(S(=O)(=O)NCCNc3nc(Nc4ccc(F)cc4)nc(N(C)C)n3)cc2)cc1 [24b] and report it.
### Response 11.3 µM
